The measurements presented in this section are drawn from patent US10358434B2.

# Measurement Protocol: In vivo kinetics experiment (radioactivity distribution)
# Design: species or system Wistar male rat
# Experimental Conditions: 30 min after administration; rat i.v.; mean ± SD
Readout Kind: Radioactivity distribution Small intestine (% ID/g)
Numbers only, in % ID/g.

>>> print(df.to_string())
                                   compound  observed_value
0  Cn1c(-c2cncc(Cn3ccnc3)c2)nc2ccc([123I])cc21 [[^123I] 607]            5.06

# per-item lookup of Radioactivity distribution Small intestine; items listed below
1. FCCn1c(-c2cncc(Cn3ccnc3)c2)nc2ccc([123I])cc21 [[^123I] 604]
2. CC(C)n1c(-c2cncc(Cn3ccnc3)c2)nc2ccc([123I])cc21 [[^123I] 606]
3. CCn1c(-c2cncc(Cn3ccnc3)c2)nc2ccc([123I])cc21 [[^123I] 608]

Data returned:
1. 3.40
2. 2.75
3. 3.18

Please give Radioactivity distribution Small intestine, item by item, for the list that follows.
1. Fc1cc2nc(-c3cncc(Cn4ccnc4)c3)n(Cc3ccc([123I])cc3)c2cc1Cl [[^123I] 605]
2. FCCn1c(-c2cncc(Cn3cncc3[123I])c2)nc2cc(F)c(Cl)cc21 [[^123I] 610]
3. COC(=O)c1cncn1[C@H](C)c1ccc(I)cc1 [[^123I] IMTO, (R)-[^123I]iodometomidate, reference compound]
4. COc1cc([123I])cc2c1nc(-c1cncc(Cn3ccnc3)c1)n2C1CC1 [[^123I] 609]

Data returned:
1: 3.99; 2: 0.98; 3: 0.68; 4: 4.44
